Attribution: ChEMBL document CHEMBL1212823

# TEST: Solubility of the compound in water
# Assay type: physicochemical
VALUE KIND: solubility (µM)
Express the result in µM but write the number alone.

query: Query (compound): `CC(C)c1ccc(C2(C(F)(F)F)N=N2)cc1O` ; field requested: solubility
result: 185

---

# TEST: Binding affinity to horse spleen apoferritin using 1-AMA by fluorescence competition method
Kindly state pKd for each of the entries shown.
Reminder that pKd means the negative base-10 logarithm of the concentration expressed in mol/L.

query: # input molecule: `CC(C)c1ccc(C2(C(F)(F)F)N=N2)cc1O` ; wanted: its pKd
result: 4.72

query: Item under review: `CC(C)c1cccc(C(C)C)c1O` . Reported pKd?
result: 5.00

---

# Tested on: Xenopus laevis
# TEST: Anesthetic effect on Xenopus laevis tadpole assessed as loss of spontaneous motion measured for 30 seconds after 30 mins
# Type: functional, organism-based
# STATED CONDITIONS: 0.5 h
VALUE KIND: EC50 (nM)
Entry rule: numbers only, all in nM.

query: For the record `CC(C)c1cccc(C(C)C)c1O` , what value of EC50 is listed for Xenopus laevis?
result: 1100

query: Look up EC50 with Xenopus laevis for this molecule: `CC(C)c1ccc(C2(C(F)(F)F)N=N2)cc1O`
result: 1100
